# Lookup of reported Kd keyed by entry
# Target Of Assay: T1, Human IL22 (human, UniProt Q9GZX6 34-179)
# T1 construct: IL22 of the Biacore and cell assays
# T1 sequence: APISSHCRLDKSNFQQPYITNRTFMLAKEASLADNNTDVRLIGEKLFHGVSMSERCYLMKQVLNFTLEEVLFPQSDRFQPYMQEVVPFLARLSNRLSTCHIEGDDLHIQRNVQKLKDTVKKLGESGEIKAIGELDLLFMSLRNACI
# Protocol Notes: SPR (Biacore); Fab variant, human IL22
Please respond with the number in nM and leave the unit unwritten.

Recorded Kd, per entry:
Binder | Unit Of Measure | Kd
11041gL7 C91S S96A gH5 D54E (Fab, V domains shown, also called 11041gL14gH14) VH: EVQLVESGGGLVQPGGSLRLSCAVSGFSLSSYAMIWVRQAPGKGLEWIGIIDIEGSTYYASWAKGRFTISRDNSKNTVYLQMNSLRAEDTAVYYCARDRFVGVDIFDPWGQGTLVTVSS VL: AIQLTQSPSSLSASVGDRVTITCQASEDIYTNLAWYQQKPGKAPKLLIYWASTLASGVPSRFSGSGSGTDFTLTISSLQPEDFATYYCQASVYGNAADSRYTFGGGTKVEIK | nM | 0.0266
11041gL6gH1 (Fab, V domains shown, V-regions only) VH: EVQLVESGGGLVQPGGSLRLSCAVSGFSLSSYAMIWVRQAPGKGLEWIGIIDIDGSTYYASWAKGRFTISRDSSKNTVYLQMNSLRAEDTAVYYCARDRFVGVDIFDPWGQGTLVTVSS VL: AVQLTQSPSSLSASVGDRVTITCQASEDIYTNLAWYQQKPGKAPKLLIYWASTLASGVPSRFSGSGSGTDFTLTISSLQPEDFATYYCQACVYGNSADSRYTFGGGTKVEIK | nM | 0.369

Could you now consider this next binder?
Q. Which Kd is listed for 11041gL7 C91S S96A gH11 D54E (Fab, V domains shown, V-regions only; also called 11041gL14gH17) VH: EVQLVESGGGLVQPGGSLRLSCAVSGFSLSSYAMIWVRQAPGKGLEWVGIIDIEGSTYYASWAKGRFTISRDNSKNTLYLQMNSLRAEDTAVYYCARDRFVGVDIFDPWGQGTLVTVSS VL: AIQLTQSPSSLSASVGDRVTITCQASEDIYTNLAWYQQKPGKAPKLLIYWASTLASGVPSRFSGSGSGTDFTLTISSLQPEDFATYYCQASVYGNAADSRYTFGGGTKVEIK ?
A. 0.0617
